Molecular target: 5HT2B receptors (Homo sapiens, UniProt P41595)
Construct: expressed in transfected cells; host or cells: CHO-K1 cells
Sequence (P41595 whole entry): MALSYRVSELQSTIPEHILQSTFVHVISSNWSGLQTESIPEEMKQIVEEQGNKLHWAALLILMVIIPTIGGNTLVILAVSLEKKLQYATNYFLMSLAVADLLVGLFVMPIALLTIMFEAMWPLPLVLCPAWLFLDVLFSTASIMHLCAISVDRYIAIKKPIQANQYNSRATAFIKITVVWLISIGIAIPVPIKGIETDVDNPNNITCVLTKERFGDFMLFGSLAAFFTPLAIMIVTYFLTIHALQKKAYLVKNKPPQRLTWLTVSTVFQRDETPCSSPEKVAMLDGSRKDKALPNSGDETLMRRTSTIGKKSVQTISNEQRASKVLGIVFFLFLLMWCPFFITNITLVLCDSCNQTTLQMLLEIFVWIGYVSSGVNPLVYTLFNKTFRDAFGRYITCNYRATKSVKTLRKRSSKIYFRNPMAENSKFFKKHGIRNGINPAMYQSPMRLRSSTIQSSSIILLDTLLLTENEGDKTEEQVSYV
Assay: Human 5-HT2B functional assay in CHO-K1 cells (calcium flux, FLIPR)
Assay type: cell-based
Conditions: CHO-K1 cells over-expressing 5HT2B, calcium flux; read-out: EC50 (μM), 5-HT2B Agonist Activity
Method: (iii) Human 5-HT2C and 5-HT2B Functional Assay in CHO-K1 Cells […] Fluorescence measurements were read at 25° C. at an excitation wavelength of 480 nm and an emission wavelength of 530 nm in FLIPR (MDS). Baseline fluorescence was measured for the first 10 seconds and then 15 μL of 4× concentrations of serotonin/test compounds was added to the cell plate. The fluorescence intensity was captured every second for the first 1 minute followed by every 5 seconds for an additional 2 minutes. […]
measuredEndpoint: EC50

{"compound": "CCc1cccc(-c2ccc3c(c2)N2CCNCC2CC(=O)N3)c1 (stereo not drawn)", "studyTarget": "5HT2B receptors (Homo sapiens, UniProt P41595)", "EC50": "> 10 µM"}

[Q] Field request: EC50 | item: CC(C)c1cccc(-c2ccc3c(c2)N2CCNCC2CC(=O)N3)c1 (stereo not drawn)
[A] > 10 µM

* * *

Molecular target: UniProtKB P28335
Assay: Human 5-HT2C functional assay in CHO-K1 cells (calcium flux, FLIPR)
Type: cell-based
Set-up: expressed in transfected cells; host or cells: CHO-K1 cells
Conditions: CHO-K1 cells; percentage relative to the effect of serotonin; read-out: Emax (%), 5-HT2c Agonist Activity
measuredEndpoint: Emax

{"molecule": "Oc1ccccc1-c1ccc2c(c1)N1CCNC[C@@H]1CCO2", "Emax": "> 120%"}

[Q] # query: Emax of entry C[C@@H](Cc1ccccc1)Oc1ccc2c(c1)N1CCNC[C@@H]1CC(=O)N2
[A] > 120%

[Q] Please report the recorded Emax for CCOC(=O)c1ccc2c(c1)N1CCNCC1CC(=O)N2 (stereo not drawn) .
[A] 80%

* * *

Biological target: UniProtKB P28335
Sequence (P28335 33-458): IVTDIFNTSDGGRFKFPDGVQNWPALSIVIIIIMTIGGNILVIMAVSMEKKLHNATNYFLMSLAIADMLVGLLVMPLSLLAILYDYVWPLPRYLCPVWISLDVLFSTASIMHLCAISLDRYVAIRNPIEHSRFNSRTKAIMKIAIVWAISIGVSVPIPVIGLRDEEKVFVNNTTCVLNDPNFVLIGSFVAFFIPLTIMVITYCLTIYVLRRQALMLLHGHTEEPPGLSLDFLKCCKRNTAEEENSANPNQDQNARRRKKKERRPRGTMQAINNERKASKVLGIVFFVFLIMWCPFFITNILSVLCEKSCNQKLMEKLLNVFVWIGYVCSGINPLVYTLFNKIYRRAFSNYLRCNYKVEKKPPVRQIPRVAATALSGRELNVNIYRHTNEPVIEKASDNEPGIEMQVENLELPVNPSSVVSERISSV
Assay: Human 5-HT2C functional assay in CHO-K1 cells (calcium flux, FLIPR)
Assay type: cell-based
Design: expressed in transfected cells; host or cells: CHO-K1 cells
Details: CHO-K1 cells; percentage relative to the effect of serotonin; read-out: Emax (%), 5-HT2c Agonist Activity
Protocol: (iii) Human 5-HT2C and 5-HT2B Functional Assay in CHO-K1 Cells […] Fluorescence measurements were read at 25° C. at an excitation wavelength of 480 nm and an emission wavelength of 530 nm in FLIPR (MDS). Baseline fluorescence was measured for the first 10 seconds and then 15 μL of 4× concentrations of serotonin/test compounds was added to the cell plate. The fluorescence intensity was captured every second for the first 1 minute followed by every 5 seconds for an additional 2 minutes. […]
measuredEndpoint: Emax (%)
Entry rule: numbers only, all in %.

Guide cases for Emax, answers given:
{"compound": "CC(O)c1ccc(-c2cccc3c2OCC[C@H]2CNCCN32)cc1 (some centres unmarked) [Example 234]", "Emax, %": 105}
{"compound": "O=C1C[C@H]2CNCCN2c2cc(OC(F)F)ccc2N1 [Example 131]", "Emax, %": 110}
{"compound": "c1cc(-c2ccc3c(c2)N2CCNC[C@@H]2CCO3)co1 [Example 224]", "Emax, %": 85}

[Q] Look at this compound and give its reported Emax. CS(=O)(=O)c1cccc(-c2ccc3c(c2)OCC[C@H]2CNCCN32)c1 [Example 238]
[A] 90

* * *

Molecular target: 5HT2C receptors (Homo sapiens, UniProt P28335)
Sequence (P28335 33-458): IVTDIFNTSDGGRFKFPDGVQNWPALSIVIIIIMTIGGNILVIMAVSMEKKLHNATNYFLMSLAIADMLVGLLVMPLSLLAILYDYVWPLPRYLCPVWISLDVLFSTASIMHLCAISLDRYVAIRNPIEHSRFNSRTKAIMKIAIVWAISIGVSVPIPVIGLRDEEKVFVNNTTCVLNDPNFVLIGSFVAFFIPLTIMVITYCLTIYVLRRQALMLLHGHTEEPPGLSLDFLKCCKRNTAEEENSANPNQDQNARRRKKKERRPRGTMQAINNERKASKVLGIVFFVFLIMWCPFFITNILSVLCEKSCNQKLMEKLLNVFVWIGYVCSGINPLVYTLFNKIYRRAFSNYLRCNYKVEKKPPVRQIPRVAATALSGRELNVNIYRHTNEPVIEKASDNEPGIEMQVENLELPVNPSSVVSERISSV
Assay: Human 5-HT2C functional assay in CHO-K1 cells (calcium flux, FLIPR)
Assay type: cell-based
Parameters: expressed in transfected cells; host or cells: CHO-K1 cells
Settings: CHO-K1 cells over-expressing 5HT2C, calcium flux; read-out: EC50 (μM), 5-HT2c Agonist Activity
Class membership depends on EC50 alone; the intervals are group A (below 0.007 µM), group B (0.007 µM to below 0.05 µM), group C (0.05 µM or more)

As a guide, the following entries are already answered.
{"compound": "CC(C)Oc1cccc(-c2ccc3c(c2)N2CCNCC2CC(=O)N3)c1 (centres unmarked)", "qualitativeLabel": "group B"}
{"compound": "Clc1ccc2c(c1)N1CCN(Cc3ccccc3)C[C@@H]1CCO2", "qualitativeLabel": "group C"}

[Q] Which EC50 category applies to O=C1NCC2CNCCN2c2ccc(NS(=O)(=O)c3ccccc3)cc21 (centres unmarked) here?
[A] group C

[Q] Lab note: which band did CC(C)=Cc1ccc2c(c1)N1CCNC[C@@H]1CCO2 land in?
[A] group A

[Q] Record FCCN1CCN2c3ccccc3OCC[C@H]2C1 — which class?
[A] group B

[Q] Into which bin does this compound go? O=C1C[C@H]2CNCCN2c2cc(OCCc3ccccc3Cl)ccc2N1
[A] group A

[Q] # bin label for COc1ccc(-c2ccc3c(c2)N2CCNCC2CC(=O)N3)cc1 (centres unmarked)
[A] group C

[Q] Sort into band: O=C1CC2CNCCN2c2cc(-c3cnn(Cc4ccccc4)c3)ccc2N1 (centres unmarked)
[A] group C

[Q] Category of O=C1CC2CNCCN2c2cc(/C=C/c3ccccc3F)ccc2N1 (centres unmarked) , please.
[A] group A

* * *

Listing: pEC50 of selected molecules
Target: 5HT2C receptors (Homo sapiens, UniProt P28335)
Assay: Human 5-HT2C functional assay in CHO-K1 cells (calcium flux, FLIPR)
Type: cell-based
Design: expressed in transfected cells; host or cells: CHO-K1 cells
Schema: pEC50 number; meaning minus log10 of the concentration expressed in molar units.

{"molecule": "COc1ccc2c(c1)OCC[C@H]1CN(C)CCN21", "studyTarget": "5HT2C receptors (Homo sapiens, UniProt P28335)", "pEC50": 7.30}

[Q] Missing value: pEC50, 5HT2C receptors (Homo sapiens, UniProt P28335), entry c1cncc(-c2ccc3c(c2)N2CCNC[C@@H]2CCO3)c1 . Fill in?
[A] 7.15

[Q] Query pEC50 on 5HT2C receptors (Homo sapiens, UniProt P28335) for Fc1ccc2c(c1)N1CCNC[C@H]1CCO2
[A] 8.00

[Q] Form field - read-out: pEC50; system: 5HT2C receptors (Homo sapiens, UniProt P28335); submitted item: CCc1cccc2c1OCC[C@H]1CNCCN21
[A] 8.30

[Q] API: value(readout=pEC50, system=5HT2C receptors (Homo sapiens, UniProt P28335)) for record Fc1ccc2c(c1F)OCC[C@H]1CNCCN21
[A] 8.70

[Q] Please provide the recorded pEC50 for O=C1C[C@@H]2CNCCN2c2c(F)cccc2N1 , tested on 5HT2C receptors (Homo sapiens, UniProt P28335).
[A] 6.05

[Q] Enter reported pEC50 observed with 5HT2C receptors (Homo sapiens, UniProt P28335) for CN1CCN2c3cc(Cl)ccc3NC(=O)C[C@H]2C1
[A] 7.17

* * *

Target: 5HT2B receptors (Homo sapiens, UniProt P41595)
Construct: expressed in transfected cells; host or cells: CHO-K1 cells
Assay: Human 5-HT2B functional assay in CHO-K1 cells (calcium flux, FLIPR)
Assay type: cell-based
Settings: CHO-K1 cells over-expressing 5HT2B, calcium flux; read-out: EC50 (μM), 5-HT2B Agonist Activity
Experimental: (iii) Human 5-HT2C and 5-HT2B Functional Assay in CHO-K1 Cells […] Fluorescence measurements were read at 25° C. at an excitation wavelength of 480 nm and an emission wavelength of 530 nm in FLIPR (MDS). Baseline fluorescence was measured for the first 10 seconds and then 15 μL of 4× concentrations of serotonin/test compounds was added to the cell plate. The fluorescence intensity was captured every second for the first 1 minute followed by every 5 seconds for an additional 2 minutes. […]
measuredEndpoint: EC50

{"compound": "O=C1CC2CNCCN2c2cc(-c3cccc4[nH]ccc34)ccc2N1 (stereo not drawn)", "studyTarget": "5HT2B receptors (Homo sapiens, UniProt P41595)", "EC50": "> 10 µM"}
{"compound": "c1cc(-c2ccc3c(c2)N2CCNC[C@@H]2CCO3)co1", "studyTarget": "5HT2B receptors (Homo sapiens, UniProt P41595)", "EC50": "0.4 µM"}

[Q] Recorded EC50 for CC(C)COc1cccc(-c2ccc3c(c2)N2CCNCC2CC(=O)N3)c1 (stereo not drawn) , please?
[A] > 10 µM

[Q] Entry O=C1CC2CNCCN2c2cc(-c3ccc(F)cc3)ccc2N1 (stereo not drawn) has what EC50?
[A] > 10 µM

[Q] EC50 for C[C@@H](Oc1ccc2c(c1)N1CCNC[C@@H]1CC(=O)N2)c1cc(F)ccc1F ?
[A] 0.04 µM

[Q] Item under review: C[C@@H](Oc1ccc2c(c1)N1CCNCC1CC(=O)N2)c1ccccc1 (stereo partly drawn) . Reported EC50?
[A] 0.1 µM

[Q] Please look up its EC50: Cc1cccc(-c2ccc3c(c2)N2CCNCC2CC(=O)N3)c1 (stereo not drawn)
[A] > 10 µM

[Q] Give the measured EC50 of O=C1CC2CNCCN2c2cc(-c3cccc(OCc4ccccc4)c3)ccc2N1 (stereo not drawn) .
[A] > 10 µM

[Q] What value of measured EC50 is listed for O=C1NCC2CNCCN2c2ccc(NS(=O)(=O)c3cccc(C(F)(F)F)c3)cc21 (stereo not drawn) ?
[A] > 10 µM
